Measurement target: SMARCA2 (Homo sapiens)
Sequence (P51531 whole entry): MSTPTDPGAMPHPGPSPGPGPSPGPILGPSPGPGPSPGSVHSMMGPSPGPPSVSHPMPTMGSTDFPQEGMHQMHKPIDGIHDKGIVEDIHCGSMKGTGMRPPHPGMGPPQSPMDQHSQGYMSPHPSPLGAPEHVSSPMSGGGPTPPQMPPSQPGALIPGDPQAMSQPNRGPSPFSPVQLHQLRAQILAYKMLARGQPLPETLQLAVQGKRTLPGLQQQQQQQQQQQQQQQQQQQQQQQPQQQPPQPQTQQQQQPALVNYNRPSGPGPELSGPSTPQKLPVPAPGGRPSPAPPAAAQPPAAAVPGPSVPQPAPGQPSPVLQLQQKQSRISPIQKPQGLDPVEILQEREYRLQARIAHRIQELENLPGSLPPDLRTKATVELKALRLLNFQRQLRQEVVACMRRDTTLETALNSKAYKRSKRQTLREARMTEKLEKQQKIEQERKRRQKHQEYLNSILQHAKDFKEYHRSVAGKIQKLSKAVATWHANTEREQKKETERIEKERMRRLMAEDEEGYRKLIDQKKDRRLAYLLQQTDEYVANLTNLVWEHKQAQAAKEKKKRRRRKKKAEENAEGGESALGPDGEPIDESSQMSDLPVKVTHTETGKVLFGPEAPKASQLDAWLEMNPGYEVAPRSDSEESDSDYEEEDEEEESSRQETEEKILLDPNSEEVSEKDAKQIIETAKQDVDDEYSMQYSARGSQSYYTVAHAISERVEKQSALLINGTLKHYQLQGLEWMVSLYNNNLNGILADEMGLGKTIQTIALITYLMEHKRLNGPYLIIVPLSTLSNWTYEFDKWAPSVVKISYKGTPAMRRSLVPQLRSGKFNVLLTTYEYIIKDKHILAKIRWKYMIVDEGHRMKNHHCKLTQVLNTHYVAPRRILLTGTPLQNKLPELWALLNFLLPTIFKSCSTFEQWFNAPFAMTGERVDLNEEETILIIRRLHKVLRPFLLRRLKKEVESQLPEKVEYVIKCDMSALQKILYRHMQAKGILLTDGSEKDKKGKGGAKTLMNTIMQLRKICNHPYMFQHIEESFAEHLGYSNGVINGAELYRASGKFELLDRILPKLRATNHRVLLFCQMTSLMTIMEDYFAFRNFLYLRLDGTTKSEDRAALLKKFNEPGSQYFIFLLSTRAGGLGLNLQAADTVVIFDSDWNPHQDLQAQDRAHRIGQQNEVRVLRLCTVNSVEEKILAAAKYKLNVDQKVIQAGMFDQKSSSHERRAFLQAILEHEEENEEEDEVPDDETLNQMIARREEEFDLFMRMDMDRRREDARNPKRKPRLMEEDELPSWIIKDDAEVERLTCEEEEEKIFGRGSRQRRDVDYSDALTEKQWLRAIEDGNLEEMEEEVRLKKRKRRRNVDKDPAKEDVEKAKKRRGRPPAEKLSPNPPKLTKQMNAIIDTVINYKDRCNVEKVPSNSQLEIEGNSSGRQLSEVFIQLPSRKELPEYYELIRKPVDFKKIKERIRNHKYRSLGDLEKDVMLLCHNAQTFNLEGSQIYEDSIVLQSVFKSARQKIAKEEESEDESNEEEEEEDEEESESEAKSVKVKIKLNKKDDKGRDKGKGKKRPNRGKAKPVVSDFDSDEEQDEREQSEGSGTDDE
Measurement protocol: MSD SMARCA2 degradation in A549 cell line
Type: cell-based
Study conditions: A549 cells, 24 h, read-out: SMARCA2 MSD A549 degradation 24 h: Average external-Abs DC50
For each record, write down the corresponding DC50.

[ask] Please report DC50 for the following compound: Cc1ncsc1-c1ccc(CNC(=O)[C@@H]2C[C@@H](OC(=O)[C@H](C)N)CN2C(=O)[C@@H](NC(=O)[C@H]2CC[C@H](c3cnc(N4C5CCC4CN(c4cc(-c6ccccc6O)nnc4N)C5)nc3)CC2)C(C)(C)C)cc1
[reply] < 100 nM

[ask] Let me know recorded DC50 for Cn1c(=O)n(C2CCC(=O)NC2=O)c2cccc(CN3CCC4(CCN(Cc5cccc(C#Cc6cc(NC(=O)Nc7cc(F)ncc7CO)ccn6)c5)CC4)CC3)c21 (centres unmarked) , thanks.
[reply] > 1000 nM

[ask] Report DC50, nothing else, for this compound: COc1ccccc1-c1cc(N2CC3CCC(C2)N3c2ncc(C3CCN(CCCc4ccc5c(c4)n(C)c(=O)n5C4CCC(=O)NC4=O)CC3)cn2)c(N)nn1 (centres unmarked)
[reply] > 1000 nM

[ask] Name the recorded DC50 of the item Cc1ncsc1-c1ccc(CNC(=O)[C@@H]2C[C@@H](O)CN2C(=O)[C@@H](NC(=O)[C@H]2CC[C@@H](CN3CCC(c4cnc(N5C6CCC5CN(c5cc(-c7ccccc7O)nnc5N)C6)nc4)CC3)CC2)C(C)(C)C)cc1 in your answer.
[reply] 100 to 500 nM

[ask] Specify measured DC50 for Cc1ncsc1-c1ccc(CNC(=O)[C@@H]2C[C@@H](O)CN2C(=O)[C@@H](NC(=O)CCCN2CCC(c3cccc(C#Cc4cc(NC(=O)Nc5cc(F)ncc5CO)ccn4)c3)CC2)C(C)(C)C)cc1 .
[reply] > 1000 nM

[ask] Give the reported DC50 for this compound. Cn1c(=O)n(C2CCC(=O)NC2=O)c2ccc(C3CCC(N4CCC(c5cnc(N6C7CCC6CN(c6cc(-c8ccccc8O)nnc6N)C7)nc5)CC4)CC3)cc21 (centres unmarked)
[reply] < 100 nM

[ask] Write down DC50 measured for item Cc1ncsc1-c1ccc(CNC(=O)[C@@H]2C[C@@H](O)CN2C(=O)[C@@H](NC(=O)C[C@H]2C[C@H](N3CCC(c4cnc(N5C6CCC5CN(c5cc(-c7ccccc7O)nnc5N)C6)nc4)CC3)C2)C(C)(C)C)cc1
[reply] 100 to 500 nM

[ask] Supply measured DC50 of Cc1ncsc1-c1ccc(CNC(=O)[C@@H]2C[C@@H](O)CN2C(=O)[C@@H](NC(=O)[C@H]2CC3(C2)C[C@H](N2CCC(c4cnc(N5C6CCC5CN(c5cc(-c7ccccc7O)nnc5N)C6)nc4)CC2)C3)C(C)(C)C)cc1 (some centres unmarked) [I-424] in your reply.
[reply] < 100 nM

[ask] Given Cc1ncsc1-c1ccc(CNC(=O)[C@@H]2C[C@@H](O)CN2C(=O)[C@@H](NC(=O)CN2C3CCC2CC(c2cnc(N4C5CCC4CN(c4cc(-c6ccccc6O)nnc4N)C5)nc2)C3)C(C)(C)C)cc1 (some centres unmarked) , respond with its DC50.
[reply] 100 to 500 nM

[ask] Output DC50 of Nc1nnc(-c2ccccc2O)cc1N1CC2CCC(C1)N2c1ncc(C2CCN(CCCCCCNC(=O)COc3ccc4c(c3)CCCN4C(=O)CCl)CC2)cn1
[reply] > 1000 nM

[ask] Give the reported DC50 for this compound. Cc1ncsc1-c1ccc(CNC(=O)[C@@H]2C[C@@H](O)CN2C(=O)[C@@H](NC(=O)[C@H]2CC3(C[C@H](CN(C)Cc4cnc(N5C6CCC5CN(c5cc(-c7ccccc7O)nnc5N)C6)nc4)C3)C2)C(C)(C)C)cc1 (some centres unmarked)
[reply] 100 to 500 nM

[ask] For the compound Cc1ncsc1-c1ccc(CNC(=O)[C@@H]2C[C@@H](O)CN2C(=O)[C@@H](NC(=O)[C@H]2CC[C@H](c3cnc(N4C5CCC4CN(c4cc(-c6ccccc6O)nnc4N)C5)nc3C)CC2)C(C)(C)C)cc1 , report DC50.
[reply] < 100 nM

[ask] Please give the documented DC50 of Cc1ncsc1-c1ccc(CNC(=O)[C@@H]2C[C@@H](O)CN2C(=O)[C@@H](NC(=O)C2CCC(CCCCCN3CCC(Cn4cc(-c5cc(-c6ccccc6O)nnc5N)cn4)CC3)CC2)C(C)(C)C)cc1 (some centres unmarked)
[reply] 100 to 500 nM

[ask] For the compound Cc1ncsc1-c1ccc(CNC(=O)[C@@H]2C[C@@H](O)CN2C(=O)[C@@H](NC(=O)C2CC=C(c3nccc(N4C5CCC4CN(c4cc(-c6ccccc6O)nnc4N)C5)n3)CC2)C(C)(C)C)cc1 (some centres unmarked) , report DC50.
[reply] 100 to 500 nM

[ask] Look up and state reported DC50 for Cc1ncsc1-c1ccc(CNC(=O)[C@@H]2C[C@@H](O)CN2C(=O)[C@@H](NC(=O)[C@H]2CC3(C2)C[C@H](c2cnc(N4C5CCC4CN(c4cc(-c6ccccc6O)nnc4N)C5)nc2)C3)C(C)(C)C)cc1 (some centres unmarked)
[reply] < 100 nM

[ask] State, in one line, measured DC50 of Cc1ncsc1-c1ccc(CNC(=O)[C@@H]2C[C@@H](O)CN2C(=O)[C@@H](NC(=O)[C@H]2CC[C@H](N3CC(c4cnc(N5C6CCC5CN(c5cc(-c7ccccc7O)nnc5N)C6)nc4)C3)CC2)C(C)(C)C)cc1
[reply] 100 to 500 nM

[ask] Using the record for Cc1ncsc1-c1ccc(CNC(=O)[C@@H]2C[C@@H](O)CN2C(=O)[C@@H](NC(=O)[C@@H]2CC=C(c3cnc(N4C5CCC4CN(c4cc(-c6ccccc6O)nnc4N)C5)nc3)CC2)C(C)(C)C)cc1 , state its measured DC50.
[reply] < 100 nM

[ask] State its DC50 for this compound: Cc1ncsc1-c1ccc(CNC(=O)[C@@H]2C[C@@H](O)CN2C(=O)[C@@H](NC(=O)CCN2CCC[C@@H](Cn3cc(-c4cc(-c5ccccc5O)nnc4N)cn3)C2)C(C)(C)C)cc1
[reply] > 1000 nM

[ask] Provide one value: measured DC50 of COc1ccccc1-c1cc(N2CC3CCC(C2)N3c2ncc(C3CCN(CCCNC(=O)COc4ccc5c(c4)CCCN5C(=O)CCl)CC3)cn2)c(N)nn1
[reply] > 1000 nM

[ask] Give recorded DC50. Cc1ncsc1-c1ccc(CNC(=O)[C@@H]2C[C@@H](O)CN2C(=O)[C@@H](NC(=O)CCCCCC2CCC(N3CCC(Cn4cc(-c5cc(-c6ccccc6O)nnc5N)cn4)CC3)CC2)C(C)(C)C)cc1 (some centres unmarked)
[reply] 100 to 500 nM
